Reported IC50 values follow for various molecules
- target: Pim2 (Homo sapiens, UniProt Q9P1W9)
- Construct: purchased Invitrogen PV3649
- Sequence (Q9P1W9 whole entry): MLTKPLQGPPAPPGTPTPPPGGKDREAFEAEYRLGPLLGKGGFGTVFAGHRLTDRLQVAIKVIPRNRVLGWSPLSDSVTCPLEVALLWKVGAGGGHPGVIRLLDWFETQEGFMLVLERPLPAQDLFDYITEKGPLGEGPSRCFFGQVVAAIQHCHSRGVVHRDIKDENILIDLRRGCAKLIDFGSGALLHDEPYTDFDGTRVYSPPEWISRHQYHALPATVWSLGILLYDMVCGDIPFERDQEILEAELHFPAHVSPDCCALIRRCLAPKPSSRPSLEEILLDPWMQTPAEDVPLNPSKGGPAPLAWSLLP
- measurementProtocol: Pim-2 kinase assay (Pim enzyme assays, Example A)
- Assay type: biochemical
- measurementSetup: 1 mM ATP; read-out: Pim2 IC50
- Method: Pim-2 kinase assay—20 μL reactions were run in white 384 well polystyrene plates dotted with 0.8 μL compound/DMSO in the assay buffer (50 mM Tris, pH 7.5, 0.01% Tween-20, 5 mM mgCl2, 0.01% BSA, 5 mM DTT), containing 0.05 μM Fluorescein-labeled CREBtide peptide substrate (Invitrogen PV3508), 1 mM ATP, and 1 nM enzyme (Invitrogen PV3649) for 2 h at 25° C. […] After 30 min. incubation at room temperature, plates were read on a PHERAstar FS plate reader (BMG Labtech).

Input C[C@H]1CN(c2ccncc2NC(=O)c2nc3cc(N4CCOCC4)ccc3cc2N)C[C@@H](N)[C@H]1n1ccnn1 . Output IC50: > 2000 nM

IC50 recorded for this molecule, CCc1ccc2cc(N)c(C(=O)Nc3cnc4c(c3N3CCC[C@H](N)C3)CCC4O)nc2c1 (single isomer, unassigned) [22 isomer 1] , is > 2000 nM

Next:
The recorded IC50 for entry C[C@@H]1C[C@H](N)CN(c2ccncc2NC(=O)c2nc3cc(C4CCN(C)CC4)ccc3cc2N)C1 equals ≤ 100 nM

Notebook: N#CCc1ccc2cc(N)c(C(=O)Nc3cnccc3N3CCC[C@H](N)C3)nc2c1 , IC50 read as 100 to 1000 nM

Per the record, Nc1cc2ccc(CN3CCOCC3)cc2nc1C(=O)Nc1cnccc1N1CCC[C@H](N)C1 has IC50 of 100 to 1000 nM

# IC50 (molecule: Nc1cc2ccc(-c3c(F)cccc3F)cc2nc1C(=O)Nc1cnccc1N1CCC[C@H](N)C1 ) is 100 to 1000 nM

So, C[C@H]1CN(c2ccncc2NC(=O)c2nc3cc(N4CCN(C)C(=O)C4)ccc3cc2N)C[C@@H](N)[C@@H]1O ? Its IC50 was ≤ 100 nM

Recorded IC50 (molecule CCc1ccc2cc(N)c(C(=O)Nc3cncc(C#N)c3N3CCC[C@H](N)C3)nc2c1 ): > 2000 nM

IC50 measured on Nc1cc2ccc(C3CCNCC3)cc2nc1C(=O)Nc1cnccc1N1CCC[C@H](N)C1 = 100 to 1000 nM

Sure, the documented IC50 for CC(C)(O)c1ccc2cc(N)c(C(=O)Nc3cnccc3N3CCC[C@H](N)C3)nc2c1 is 100 to 1000 nM

Short answer for C[C@@H]1C[C@H](N)CN(c2ccncc2NC(=O)c2nc3cc(N4CCOCC4=O)ccc3cc2N)C1 : IC50 was 100 to 1000 nM

Data point: C[C@@H]1C[C@H](N)CN(c2ccncc2NC(=O)c2nc3cc(N4CCN(C)C(=O)C4)ccc3cc2N)C1 ; IC50 = 100 to 1000 nM

Form: molecule = C[C@H]1CN(c2ccncc2NC(=O)c2nc3cc(C4CCOCC4)ccc3cc2N)C[C@@H](N)[C@@H]1O ; IC50 = ≤ 100 nM

// field: IC50; key: CCc1ccc2cc(N)c(C(=O)Nc3cnccc3N3CCC[C@H](N)C3)nc2c1 ; value = ≤ 100 nM

Recorded IC50 (molecule CN1CCC(c2ccc3cc(N)c(C(=O)Nc4cnccc4N4C[C@@H](N)C[C@@H](C(F)(F)F)C4)nc3c2)CC1 ): ≤ 100 nM

Briefly, IC50 measured for CCc1ccc2cc(N)c(C(=O)Nc3cnccc3N3C[C@@H](N)[C@@H](NC(=O)OC)[C@@H](C)C3)nc2c1 : 100 to 1000 nM

The molecule listed as N#Cc1cccc(F)c1-c1ccc2cc(N)c(C(=O)Nc3cnccc3N3CCC[C@H](N)C3)nc2c1 shows IC50 equal to ≤ 100 nM

Note to self: IC50 recorded for CCc1ccc2cc(N)c(C(=O)Nc3cncc(C)c3N3CCC[C@H](N)C3)nc2c1 was ≤ 100 nM

Recorded result, CC(C)c1ccc2cc(N)c(C(=O)Nc3cnccc3N3CCC[C@H](N)C3)nc2c1 , IC50: ≤ 100 nM

Lab book: IC50 of C[C@@H]1C[C@H](N)CN(c2ccncc2NC(=O)c2nc3cc(N4CCOCC4)ccc3cc2N)C1 noted as ≤ 100 nM

Documented IC50 of C[C@H]1CN(c2ccncc2NC(=O)c2nc3cc(C4CCOCC4)ccc3cc2N)C[C@@H](N)[C@H]1n1ccnn1 : 1000 to 10000 nM

Looking up N#Cc1ccccc1-c1ccc2cc(N)c(C(=O)Nc3cnccc3N3CCC[C@H](N)C3)nc2c1 , I found its IC50 recorded as ≤ 100 nM

# IC50 of CCc1ccc2cc(N)c(C(=O)Nc3cncc(C)c3N3C[C@@H](N)[C@H](O)[C@@H](C)C3)nc2c1 = ≤ 100 nM

Value of IC50 reported for the molecule CN1CCN(c2ccc3cc(N)c(C(=O)Nc4cnccc4N4C[C@@H](N)C[C@@H](C(F)(F)F)C4)nc3c2)CC1 is 100 to 1000 nM

The molecule listed as C[C@@H]1C[C@H](N)CN(c2ccncc2NC(=O)c2nc3cc(N4CCCCC4=O)ccc3cc2N)C1 shows IC50 equal to 100 to 1000 nM
